system.under.test: human TRPA1 (Homo sapiens)
Construct: expressed in transfected cells; host or cells: Human embryonic kidney-derived 293T cells, transiently transfected with the pcDNA3.1/zeo(+) human TRPA1 plasmid
Sequence (O75762 whole entry): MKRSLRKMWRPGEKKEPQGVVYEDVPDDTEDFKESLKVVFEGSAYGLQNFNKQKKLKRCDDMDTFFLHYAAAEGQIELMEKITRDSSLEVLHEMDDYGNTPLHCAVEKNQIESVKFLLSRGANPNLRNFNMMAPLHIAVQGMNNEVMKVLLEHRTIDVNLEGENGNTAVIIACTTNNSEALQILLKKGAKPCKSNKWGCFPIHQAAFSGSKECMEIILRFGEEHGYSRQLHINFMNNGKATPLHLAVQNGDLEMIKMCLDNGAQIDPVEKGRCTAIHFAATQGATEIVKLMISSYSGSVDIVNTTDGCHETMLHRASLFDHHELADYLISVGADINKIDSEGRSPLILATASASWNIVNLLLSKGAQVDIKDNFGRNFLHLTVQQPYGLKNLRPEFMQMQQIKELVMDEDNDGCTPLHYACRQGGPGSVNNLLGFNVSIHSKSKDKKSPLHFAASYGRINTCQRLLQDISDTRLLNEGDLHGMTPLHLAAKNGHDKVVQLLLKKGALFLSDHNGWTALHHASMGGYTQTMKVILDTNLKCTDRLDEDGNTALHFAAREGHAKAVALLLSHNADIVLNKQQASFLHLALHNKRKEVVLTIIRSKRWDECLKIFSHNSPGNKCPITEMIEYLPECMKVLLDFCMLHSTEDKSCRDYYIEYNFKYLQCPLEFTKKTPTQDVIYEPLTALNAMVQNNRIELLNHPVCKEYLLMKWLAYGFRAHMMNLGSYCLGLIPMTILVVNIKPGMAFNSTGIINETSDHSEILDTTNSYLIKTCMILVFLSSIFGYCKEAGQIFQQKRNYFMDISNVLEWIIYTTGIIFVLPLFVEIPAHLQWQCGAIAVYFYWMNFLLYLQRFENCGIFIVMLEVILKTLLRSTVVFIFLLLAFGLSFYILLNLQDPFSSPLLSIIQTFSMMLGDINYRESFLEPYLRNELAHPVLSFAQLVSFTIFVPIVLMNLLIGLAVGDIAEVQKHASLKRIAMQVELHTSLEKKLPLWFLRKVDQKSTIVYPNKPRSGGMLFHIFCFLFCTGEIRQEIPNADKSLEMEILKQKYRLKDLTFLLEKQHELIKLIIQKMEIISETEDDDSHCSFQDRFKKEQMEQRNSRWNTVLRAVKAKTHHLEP
assay.explanation: Measurement of TRPA1 antagonist activity (intracellular calcium increase, FLIPR, allylisothiocyanate stimulation)
Type: cell-based
assay.setup: 293T cells transfected with human TRPA1; allylisothiocyanate 20 μM; concentration for 50% inhibitory rate; read-out: antagonism hTRPA1
readout.label: IC50 (nM)

Past entries and their recorded results:
O=C(NCc1cccc(OCc2ccc(Cl)cc2)c1)[C@@H]1CCCN1S(=O)(=O)c1ccc(Cl)s1: 10
O=C(NCc1cccc(OCc2ccccc2)c1)[C@@H]1CCCN1S(=O)(=O)c1ccc(F)cc1: 66
O=C(NCc1ccc(COc2cccc(C(F)(F)F)c2)cc1Cl)[C@@H]1CCCN1S(=O)(=O)c1ccc(Cl)s1: 140

(P) Cc1ccccc1OCc1ccc(CNC(=O)[C@@H]2CCCN2S(=O)(=O)c2ccc(Cl)s2)cc1
(Q) O=C(NCc1ccc(Oc2cccc(OC(F)(F)F)c2)cc1)[C@@H]1CCCN1S(=O)(=O)c1ccc(Cl)s1
(R) O=C(NCc1nc(COc2ccc(C(F)(F)F)cc2)cs1)[C@@H]1CCCN1S(=O)(=O)c1ccc(Cl)s1
(S) O=C(NCc1ccc(COc2ccccc2)cc1)[C@@H]1CCCN1S(=O)(=O)c1ccc(F)cc1
Give the ascending ranking of the items by reported IC50. Your reply should list the labels following the order given in the request.
Q, P, R, S
(Q: 81 nM, P: 190 nM, R: 370 nM, S: 1200 nM)
